- ASSAYED TARGET: hTREM2 (Homo sapiens, UniProt Q9NZC2)
- Sequence (Q9NZC2 19-230): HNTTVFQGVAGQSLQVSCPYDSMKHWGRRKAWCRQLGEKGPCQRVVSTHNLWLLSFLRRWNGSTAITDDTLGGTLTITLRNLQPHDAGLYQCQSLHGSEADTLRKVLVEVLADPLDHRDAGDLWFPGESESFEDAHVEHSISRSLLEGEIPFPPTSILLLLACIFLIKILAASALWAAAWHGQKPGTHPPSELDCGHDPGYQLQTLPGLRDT
- Sequence (O43914 22-113 partner): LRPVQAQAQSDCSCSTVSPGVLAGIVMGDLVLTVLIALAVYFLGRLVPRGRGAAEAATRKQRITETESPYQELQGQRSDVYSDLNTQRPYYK
- ASSAY REMARKS: TREM2 activity by cellular Syk phosphorylation (AlphaScreen/AlphaLISA) in TREM2/DAP12-HEK cells, used for Examples 1-305
- Assay type: cell-based
- Design: expressed in transfected cells
- SETTINGS: HEK293 Cells
pEC50: −log10 of the molar value.
ENDPOINT NAME: pEC50

Some entries whose results are on file:
[[record]]
compound = "Cc1ccc2c(C3CCC(F)(F)CC3)nc(N3CCO[C@@H](c4cnn(C)c4)C3)nc2n1"
assayed_target = "hTREM2 (Homo sapiens, UniProt Q9NZC2)"
value_measured = "6.30 to 7.30"

[[record]]
compound = "Cc1nc2nc([C@H]3CCO[C@@H](c4cnn(C)c4)C3)nc(-c3ccc(F)cc3F)c2nc1C (single isomer, unassigned)"
assayed_target = "hTREM2 (Homo sapiens, UniProt Q9NZC2)"
value_measured = "≥ 7.30"


Please supply pEC50 for each of the following items, keeping them in order.
1. Cc1nc2nc(N3CCO[C@@H](c4cnn(C5CC5)c4)C3)nc(C3CC4(C3)CC(F)(F)C4)c2nc1C
2. Cc1ncc([C@H]2CN(c3nc(-c4ccc(C(F)(F)F)nc4)c4nc(C)c(C)nc4n3)CCO2)cn1
3. Cc1ncc([C@@H]2C[C@H](c3nc(-c4ccc(Cl)cc4F)c4nc(C)c(C)nc4n3)CCO2)cn1
4. Cc1cc2c(-c3ccc(F)cc3F)nc([C@@H]3CCO[C@@H](c4cnn(C)c4)C3)nc2nc1C
5. Cc1cc([C@@H]2C[C@H](c3nc4nc(C)c(C)nc4c([C@H]4C[C@H](C(F)(F)F)C4)n3)CCO2)ccn1 (single isomer, unassigned)
6. Cc1nc2cc([C@@H]3CCO[C@H](c4cnn(C)c4)C3)nc(-c3ccc(Cl)cc3F)c2nc1C (single isomer, unassigned)
7. Cc1ccc2c(-c3ccc(Cl)cc3F)nc(N3CCO[C@@H](c4cnn(C)c4)C3)nc2n1

Marked response:
1. ≥ 7.30
2. 5.52 to 6.30
3. 5.52 to 6.30
4. 5.52 to 6.30
5. 6.30 to 7.30
6. 6.30 to 7.30
7. ≥ 7.30

Please supply pEC50 for each of the following items, keeping them in order.
1. Cc1cnc2c(n1)nc(N1CCO[C@@H](c3cnn(C)c3)C1)nc2[C@H]1C[C@H](C(F)(F)F)C1
2. Cc1nc2nc([C@@H]3CCO[C@H](c4cnn(C)c4)C3)nc(C3CCC(F)(F)CC3)c2nc1C (single isomer, unassigned)
3. Cc1nc2nc(N3CCOC(C4CCOC4)C3)nc(-c3ccc(Cl)cc3F)c2nc1C (stereo not drawn)
4. Cn1cc([C@H]2CN(c3nc(-c4ccc(Cl)cc4F)c4ccc(Cl)nc4n3)CCO2)cn1
5. Cc1cc([C@H]2C[C@H](c3nc(-c4ccc(F)cc4F)c4ccc(C)nc4n3)CCO2)ccn1

Marked response:
1. 6.30 to 7.30
2. 5.52 to 6.30
3. ≥ 7.30
4. 5.52 to 6.30
5. 5.52 to 6.30

Please supply pEC50 for each of the following items, keeping them in order.
1. Cc1ccc(-c2nc([C@H]3CCO[C@@H](c4cnn(C)c4)C3)cc3nc(C)c(C)nc23)c(F)c1 (single isomer, unassigned)
2. Cc1cnc2c(-c3ccc(Cl)cc3F)nc(N3CCO[C@@H](c4cnn(C5CC5)c4)C3)cc2n1
3. Cn1cc([C@H]2CN(c3nc(-c4ccc(Cl)cc4F)c4cccnc4n3)CCO2)cn1
4. Cc1cnc2c(-c3ccc(Cl)cc3F)nc(N3CCO[C@@H](c4cnn(C5COC5)c4)C3)cc2n1
5. Cc1cc([C@@H]2CN(c3nc(-c4ccc(Cl)cc4F)c4ccc(C)nc4n3)CCO2)cnn1 (single isomer, unassigned) [Example 87]
6. Cc1cc([C@H]2CN(c3nc4nc(C)cnc4c([C@H]4C[C@H](C(F)(F)F)C4)n3)CCO2)ccn1

Marked response:
["≥ 7.30", "6.30 to 7.30", "5.52 to 6.30", "6.30 to 7.30", "6.30 to 7.30", "≥ 7.30"]

Exam item: State the recorded pEC50 for this entry: Cc1ccc(-c2nc([C@@H]3CCO[C@H](c4ccnc(C)c4)C3)nc3nc(C)c(C)cc23)c(F)c1 (single isomer, unassigned)
Marked response: 6.30 to 7.30
